// provenance: patent US9493446B2

# Assayed system: orexin-1 (Homo sapiens (Human), UniProt O43613)
# Sequence (O43613 whole entry): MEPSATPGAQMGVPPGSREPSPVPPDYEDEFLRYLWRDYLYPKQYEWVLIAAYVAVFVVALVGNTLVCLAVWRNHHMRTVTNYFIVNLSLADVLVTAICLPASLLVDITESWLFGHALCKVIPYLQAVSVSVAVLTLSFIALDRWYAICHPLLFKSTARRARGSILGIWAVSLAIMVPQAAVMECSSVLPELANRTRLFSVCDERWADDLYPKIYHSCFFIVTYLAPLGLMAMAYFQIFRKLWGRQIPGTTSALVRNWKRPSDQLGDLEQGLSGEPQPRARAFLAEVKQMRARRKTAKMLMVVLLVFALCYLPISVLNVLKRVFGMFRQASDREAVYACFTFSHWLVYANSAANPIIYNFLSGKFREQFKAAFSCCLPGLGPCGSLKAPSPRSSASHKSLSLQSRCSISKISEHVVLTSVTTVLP
# Assay remarks: Intracellular calcium measurement (FLIPR), CHO cells expressing human orexin-1 receptor, 3 nM orexin-A
# Type: cell-based
# Experimental conditions: CHO cells expressing human orexin-1 receptor, FLIPR, 3 nM orexin-A; geometric mean if determined several times; read-out: IC50 OX1
pIC50: −log10 of the molar value.
The label depends only on pIC50: Yes if it is at least 7, No if it is smaller.

- Cc1ccc(-n2nccn2)c(C(=O)N2CCC[C@H]2c2nc(-c3ccc(C)c(C)n3)no2)c1: No
- COc1c(F)cccc1-c1nnc([C@@H]2CCCN2C(=O)c2cc(C)ccc2-n2nccn2)[nH]1: Yes
- COc1cc(C(=O)N2CCC[C@H]2c2nc(-c3cccc(Cl)c3C)no2)c(-n2nccn2)cc1OC: No
- CCOc1ccccc1-c1noc([C@@H]2CCCN2C(=O)c2cc(C)c(C)cc2-n2nccn2)n1: Yes
- COc1cc(C(=O)N2CCC[C@H]2c2noc(-c3cccc(Cl)c3OC)n2)c(-n2nccn2)cc1Cl: Yes

---

# Assayed system: human orexin-2 receptor (Homo sapiens (Human), UniProt O43614)
# Sequence (O43614 whole entry): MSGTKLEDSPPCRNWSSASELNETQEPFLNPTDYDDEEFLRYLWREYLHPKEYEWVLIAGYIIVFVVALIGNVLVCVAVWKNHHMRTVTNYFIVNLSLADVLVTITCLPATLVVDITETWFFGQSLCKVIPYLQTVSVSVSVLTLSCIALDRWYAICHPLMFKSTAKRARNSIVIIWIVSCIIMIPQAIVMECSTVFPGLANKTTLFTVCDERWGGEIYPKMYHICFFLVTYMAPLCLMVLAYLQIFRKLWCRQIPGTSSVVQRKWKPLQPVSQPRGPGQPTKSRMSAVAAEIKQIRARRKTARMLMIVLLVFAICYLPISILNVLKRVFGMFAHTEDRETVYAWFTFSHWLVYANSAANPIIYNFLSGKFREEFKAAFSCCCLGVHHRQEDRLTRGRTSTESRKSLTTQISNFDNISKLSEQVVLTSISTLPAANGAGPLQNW
# Assay remarks: Intracellular calcium measurement (FLIPR), CHO cells expressing human orexin-2 receptor, 3 nM orexin-A
# Format: cell-based
# Experimental conditions: CHO cells expressing human orexin-2 receptor, FLIPR, 3 nM orexin-A; geometric mean if determined several times; read-out: IC50 OX2
pIC50: −log10 of the molar value.
The label depends only on pIC50: Met if it is at least 8, Not met if it is smaller.

* CCOc1ncccc1-c1nc([C@@H]2CCCN2C(=O)c2cc(OC)c(C)cc2-n2nccn2)no1 | Met
* Cc1ccc(-n2nccn2)c(C(=O)N2CCC[C@H]2c2nc(-c3cccc(OC(F)F)c3)no2)c1 | Not met
* Cc1nc(C(=O)N2CCC[C@H]2c2nc(-c3cccc(Cl)c3C)no2)c(-c2ccc(F)cc2)s1 | Not met
* COc1ccc(-n2cccn2)c(C(=O)N2CCC[C@H]2c2nc(-c3cccc(Cl)c3C)no2)c1 | Not met
* COc1ccc(-c2noc([C@@H]3CCCN3C(=O)c3cc(C)ccc3-n3nccn3)n2)cc1OC | Not met
* COc1ccc(C)c(-c2nc([C@@H]3CCCN3C(=O)c3ccc(C)cc3-n3nccn3)no2)c1 | Not met
* O=C(c1ccccc1-c1ncco1)N1CCC[C@H]1c1nc(-c2ccccc2OC(F)(F)F)no1 | Not met
* Cc1ccc(-n2nccn2)c(C(=O)N2CCC[C@H]2c2nc(-c3cccc(C(F)(F)F)c3C)no2)c1 | Not met
* Cc1ccc(-n2nccn2)c(C(=O)N2CCC[C@H]2c2nc(-c3ncccc3C)no2)c1 | Not met
* COc1cc(C(=O)N2CCC[C@H]2c2noc(-c3cccc(C)c3C)n2)c(-n2nccn2)cc1Cl | Met

---

# Assayed system: UniProt:O43613
# Assay remarks: Intracellular calcium measurement (FLIPR), CHO cells expressing human orexin-1 receptor, 3 nM orexin-A
# Assay type: cell-based
# Experimental conditions: CHO cells expressing human orexin-1 receptor, FLIPR, 3 nM orexin-A; geometric mean if determined several times; read-out: IC50 OX1
# Method: In Vitro Assay: Intracellular Calcium Measurements: […] Within the Fluorescent Imaging Plate Reader (FLIPR Tetra, Molecular Devices), antagonists are added to the plate in a volume of 10 μL/well, incubated for 120 min and finally 10 μL/well of agonist is added. Fluorescence is measured for each well at 1 second intervals, and the height of each fluorescence peak is compared to the height of the fluorescence peak induced by 3 nM orexin-A with vehicle in place of antagonist. […]
Quantity measured: log10(IC50) (log10 of the value in nM)

- Cc1ccc(-n2nccn2)c(C(=O)N2CCC[C@H]2c2nnc(-c3ccccc3C)o2)c1: 2.98
- CCOc1ncccc1-c1noc([C@@H]2CCCN2C(=O)c2cc(C)ccc2-c2ccccn2)n1: 1.60
- CCOc1c(F)cccc1-c1nc([C@@H]2CCCN2C(=O)c2cc(OC)c(C)cc2-n2nccn2)no1: 0.95
- COc1cccc(-c2noc([C@@H]3CCCN3C(=O)c3cc(C)ccc3-n3nccn3)n2)c1Cl: 2.79
- Cc1ccc(-n2nccn2)c(C(=O)N2CCC[C@H]2c2noc(-c3cccc4c3OCC4)n2)c1: 2.11
- COc1cc(C)cc(-c2nc([C@@H]3CCCN3C(=O)c3cc(Cl)ccc3-n3nccn3)no2)c1: 2.29
- Cc1cc(C(=O)N2CCC[C@H]2c2nc(-c3cccc(Cl)c3C)no2)c(-n2cccn2)cc1C: 1.89
- COc1ccc(-n2cccn2)c(C(=O)N2CCC[C@H]2c2nc(-c3ccccc3OC(F)(F)F)no2)c1: 2.00
